details: in methanol, 288.15 K
VALUE KIND: solubility (mole fraction)

> print(dat)
                            smiles.code  value.observed
1  CC(C)(C)OC(=O)N[C@@H](CC(N)=O)C(=O)O          0.0073

###

details: in acetonitrile, 323.15 K
VALUE KIND: solubility (mole fraction)

> print(dat)
                            smiles.code  value.observed
1  CC(C)(C)OC(=O)N[C@@H](CC(N)=O)C(=O)O        0.000856
